Assay: NCI Yeast Anticancer Drug Screen. Data for the bub3 strain (AID 167)
Conditions: S. cerevisiae bub3 mutant strain, at 50.0 µM, hits give high values
The panel holds about 79,000 compounds, 15% with a hit somewhere; the sample as a whole holds those more often.
Below, each of the compounds is paired with its reported growth inhibition value.
measuredParameter: growth inhibition (%)

INSERT INTO results (compound, observedmeasurement) VALUES
  ('O=[N+]([O-])c1cccc2nc3ccccc3c(NCCc3ccccn3)c12', -17.1),
  ('C=CN1C(=O)NC2(CCCCC2)C1=O', -10.3),
  ('COc1ccc(NC(=O)Nc2cccc(Cl)c2C)c(OC)c1', 9.85),
  ('COC1OC(CBr)C(OC(=O)c2ccccc2)C(OC(C)=O)C1OC(C)=O (configuration not stated)', -1.5),
  ('CC(=O)NC(C)CC1=CC(=O)C(C)=CC1=O (configuration not stated)', -18.9),
  ('CCOc1ccc(N=Nc2c(C)nn(C(N)=S)c2OCC)cc1', -5.25),
  ('C=CCc1c(O)c2ccccc2[nH]c1=O', 4.45),
  ('COc1cc2c(cc1OC)C1=C(/C=C\C(C)=O)CCN1CC2', 0.1),
  ('COc1cc2c(cc1OC)C(O)C(O)(CO)C(C(=O)O)C2c1cc(OC)c(OC)c(OC)c1 (configuration not stated)', 25.1),
  ('O=C(c1ccccc1)c1cc(Cl)ccc1NCn1nnc2ccccc21', -49.5),
  ('Cc1cccnc1Nc1ncccc1C', 8.3),
  ('Cc1ccc(S(=O)(=O)N/N=C/c2oc(-c3ccncc3)c(-c3ccncc3)c2[N+](=O)[O-])cc1', -11.5);

###

Below, each of the compounds is paired with its reported growth inhibition value.
Experiment: NCI Yeast Anticancer Drug Screen. Data for the rad50 strain (AID 155);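 also: 0% = growth of vehicle-only cultures of the same strain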
Conditions: S. cerevisiae rad50 strain growth inhibition; at 50.0 µM; hits give high values
The panel holds about 79,000 compounds, 15% with a hit somewhere; the sample as a whole holds those more often.
measuredParameter: growth inhibition (%)

INSERT INTO results (compound, measuredparameter, observedmeasurement) VALUES
  ('N#CC/C(C#N)=C/OC(=O)c1ccc(Cl)cc1', 'growth inhibition', 12.2),
  ('O=C(O)COc1cc([N+](=O)[O-])c(Cl)cc1Cl', 'growth inhibition', 7.75),
  ('Nc1ccc2ccsc2c1', 'growth inhibition', 1.6),
  ('NS(=O)(=O)c1ncc(C(=O)N2CCN(Cc3ccccc3)CC2)[nH]1', 'growth inhibition', -6.15),
  ('CCOC(=O)Nc1nc(-c2ccc(Br)cc2)cs1', 'growth inhibition', -11.5),
  ('COc1cc(OC)c(NC(=O)Nc2ccc([N+](=O)[O-])cc2OC)cc1Cl', 'growth inhibition', -21.6),
  ('CC1CC(OC(=O)c2ccccc2)CCC1=O (stereo not drawn)', 'growth inhibition', -5.6),
  ('CC[N+](C)(CC)CCOC(=O)C(c1ccccc1)C(O)C1CC=CCC1 (stereo not drawn)', 'growth inhibition', 7.15),
  ('CCC1(C)C(=O)C(C)(CC)C1=O (stereo not drawn)', 'growth inhibition', 23.6),
  ('COc1cc(C=C2C(=O)OC(C)(C)OC2=O)cc(OC)c1OC', 'growth inhibition', 3.45),
  ('CN(C)c1nc(S(C)(=O)=O)nc2nc(S(C)(=O)=O)[nH]c12', 'growth inhibition', 2.45),
  ('COc1cc(/C=C\C(=O)c2cccc([N+](=O)[O-])c2)cc(OC)c1OC', 'growth inhibition', 20.4),
  ('C=CCc1cc(C(Cc2ccccc2)NC(C)C)cc(OCc2ccccc2)c1OCc1ccccc1 (stereo not drawn)', 'growth inhibition', 10.1),
  ('CCOc1ccc(NC(=O)C(=O)C(/C(=N/N)C(=O)OC)c2nc3ccc([N+](=O)[O-])cc3[nH]c2=O)cc1 (stereo not drawn)', 'growth inhibition', 6.9),
  ('O=C(O)C(Nc1ccc(Cc2ccc(NC(C(=O)O)c3ccccc3)cc2)cc1)c1ccccc1 (stereo not drawn)', 'growth inhibition', 94),
  ('COc1ccc(N2C(=O)[C@@H](N=[N+]=[N-])[C@@H]2[C@H]2COC(C)(C)O2)cc1', 'growth inhibition', 1.95),
  ('O=c1c(-c2ccccc2)c(O)on1/C=C1/C=CC=N1', 'growth inhibition', -8.6),
  ('COC(=O)/C(=N/NC(N)=O)C(C(=O)OC)C(=O)C(=O)Nc1ccc(Cl)cc1 (stereo not drawn)', 'growth inhibition', 1.4),
  ('NC(=O)Nc1ccc(S(=O)(=O)c2ccc(N)cc2)cc1', 'growth inhibition', 0.5),
  ('CN(C)P(=O)(Nc1ccc(Cl)cc1)Nc1ccc(Cl)cc1', 'growth inhibition', 11.7),
  ('Cc1nc2ccc(S(=O)(=O)Nc3ccccc3Cl)cc2c(=O)n1NC(=O)CNc1ccccc1Cl', 'growth inhibition', 26.4),
  ('Nc1cc(F)cc(C(F)(F)F)c1F', 'growth inhibition', 13.5),
  ('Cc1cc(Br)ccc1N=Cc1ccc(C=Nc2ccc(Br)cc2C)cc1', 'growth inhibition', -6.75);

###

Test: NCI Yeast Anticancer Drug Screen. Data for the mlh1 rad18 strain (AID 175)
Conditions: S. cerevisiae mlh1 rad18 strain growth inhibition; at 50.0 µM
Compounds without any hit were thinned out: in the full panel of roughly 79,000, 15% have a hit. Active and inactive are the calls of the source. No stated cut-off is given here; in the data, active means growth inhibition above about 70%; inactive means the rest.
Labels: y (active), n (inactive)

INSERT INTO measurements (molecule, category) VALUES
  ('NC(=NC1CCCCC1)c1ccc(C(=O)OCC2CCCCC2)cc1', 'n'),
  ('OC1C2CCC3C2CC(C(O)(c2ccccc2)c2ccccc2)C13 (stereo unspecified)', 'n'),
  ('CCCCCOC(=O)Nc1ccc(OCC)cc1', 'n'),
  ('C=CCCCCCCCCC(=O)OCC(C)C', 'n'),
  ('O=C(O)c1cc2oc3ccccc3c2cc1O', 'n'),
  ('NC(N)=NNC(=O)C(=O)O', 'n'),
  ('Cc1nc(N)nc(C)c1N=Nc1ccccc1Br', 'n'),
  ('CCOC(=O)c1c(C)nc(C)nc1N', 'n'),
  ('CCOc1cc(/C=C2/C=C(c3ccc(OC)cc3)OC2=O)ccc1O', 'n'),
  ('Cc1cc(O)c(C(c2ccc(C#N)cc2)c2c(O)cc(C)[nH]c2=O)c(=O)[nH]1', 'n'),
  ('CCCCCCCOCC(=O)O', 'n'),
  ('COc1ccc(CCCC2C(=O)CC(C)OC2=O)cc1OC (stereo unspecified)', 'n'),
  ('Brc1cccc2c(SCCCCCCSc3c4ccccc4nc4c(Br)cccc34)c3ccccc3nc12', 'n'),
  ('CCOC(=O)CC1CC(CN)(C(=O)OCC)CO1 (stereo unspecified)', 'n'),
  ('CCCCCCCCC1C(CCCCCCCC(=O)OC)C2(Cl)C(Cl)=C(Cl)C1(Cl)C2(Cl)Cl (stereo unspecified)', 'n'),
  ('O=C(O)CCC(=O)Nc1ccc(F)cc1', 'n'),
  ('Cc1[nH]nc2c1NC(=O)OC(C)C2 (stereo unspecified)', 'n'),
  ('O=C(NC(Cc1ccccc1)C(=O)NNc1ccccc1Cl)OCc1ccccc1 (stereo unspecified)', 'y'),
  ('OCC(O)C(O)C(O)C(O)C(O)C(O)CO (stereo unspecified)', 'n'),
  ('c1ccc(C[n+]2cccc3ccccc32)cc1', 'n'),
  ('FC(F)(F)c1nnc(-c2ccccc2)nn1', 'n'),
  ('CCOC(=O)COc1ccc(Cc2ccc3c(c2)OCO3)cc1C', 'n'),
  ('C=C(Br)CNCC(=C)Br', 'n'),
  ('CCC(C)CC(C)C1=NC(C)(C)CC(C)O1 (stereo unspecified)', 'n'),
  ('COc1ccc(C2COc3c(ccc(OC)c3OC)C2=O)cc1OC (stereo unspecified)', 'n'),
  ('N#CC1C(=O)NC(=O)C(C#N)C1c1ccc(Cl)cc1Cl (stereo unspecified)', 'n');

###

Experiment: NCI Yeast Anticancer Drug Screen. Data for the cln2 rad14 strain (AID 165);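 also: 0% = growth equal to vehicle treated cultures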
Conditions: S. cerevisiae cln2 rad14 strain, at 50.0 µM
Compounds without any hit were thinned out: in the full panel of roughly 79,000, 15% have a hit. The source made the active and inactive calls. Cut-off read from the data, not from the text of the source: active = growth inhibition above about 70%; inactive = the rest. Where a SMILES comes first, the peptide text is derived from it. [ ]: non-standard residue; d: D form. The star is where a group is joined. ξ: configuration not given here. Cbz = O=C(OCc1ccccc1)*; ξP = O=C(O)C1CCCN1
Labels: yes (1) for active, no (0) for inactive

INSERT INTO measurements (molecule, category) VALUES
  ('Nc1nc(Cl)cc(Nc2cc(Cl)cc(Cl)c2)n1', 'no (0)'),
  ('NNC(=O)CC(=O)Nc1ccccc1F', 'no (0)'),
  ('C#CCNC(=O)NCCCC(NC(C)=O)C(=O)NCc1ccccc1 (stereo not drawn)', 'no (0)'),
  ('CC(C)NC(=O)NCCc1c[nH]c2ccccc12', 'no (0)'),
  ('C1CCC(NCCNC2CCCCC2)CC1', 'no (0)'),
  ('CC(=O)OC1CCC2(C)C(CCC3C2CCC2(C)C3CC3OC(CCC(C)CO)C(C)C32)C1 (stereo not drawn)', 'no (0)'),
  ('N#CC(NCCc1ccccc1)c1ccccc1 (stereo not drawn)', 'no (0)'),
  ('O=C(CNC(=O)OCc1ccccc1)NCC(=O)N1CCCC1C(=O)O (stereo not drawn) (Cbz-Gly-Gly-[ξP]-OH)', 'no (0)'),
  ('CCCNC(=O)c1nc(SC)sc1NC(=O)c1ccccc1', 'no (0)'),
  ('CC1Cc2cc(O)ccc2C2[C@@H]1C1CC[C@H](O)[C@@]1(C)C[C@@H]2O[N+](=O)[O-] (stereo partly drawn)', 'no (0)'),
  ('CC1CCc2c(nc(C#N)c(=N)n2O)C1 (stereo not drawn)', 'no (0)'),
  ('CN1CCOc2c1cnn(CCO)c2=O', 'no (0)'),
  ('Clc1cccc(Cl)c1C1SCc2nc3ncccc3n21 (stereo not drawn)', 'no (0)'),
  ('N#Cc1c2c(c(N3CCCCC3)n3c1nc1ccccc13)CCC2', 'no (0)'),
  ('CCCCSCCC(=O)O', 'no (0)'),
  ('CCC1(c2ccc(N3C(=O)c4cc(OC)c(OC)cc4C3=O)cc2)CCC(=O)NC1=O (stereo not drawn)', 'no (0)'),
  ('CCOC(=O)C(/C=C/C(C)C)(CC)C(=O)OCC', 'no (0)'),
  ('COC(=O)C1C(C(=O)OC)C2N(c3ccccc3)C=NN2C1C(=O)c1ccccc1 (stereo not drawn)', 'no (0)'),
  ('CCN(CC)c1ccc(N=C2C=C(C(=O)Nc3ccccc3)C(=O)c3ccccc32)cc1', 'no (0)'),
  ('CCCCC/C=C1\CCC(CN2CCOCC2)C1=O (stereo not drawn)', 'yes (1)'),
  ('CC(C)Cc1cccc(C(C)C)c1NC(=O)CCC(=O)N/N=C1\C(=N/NC(=O)CCC(=O)Nc2c(C(C)C)cccc2C(C)C)C(c2ccc3c(c2)OCO3)Oc2ccccc21 (stereo not drawn)', 'no (0)'),
  ('Cn1ncc2c(=O)[nH]c(N)nc21', 'no (0)'),
  ('COC1=C2CC(C)CC(OC)C(OC(C)=O)C(C)/C=C(\C)C(OC(N)=O)C(OC)/C=C\C=C(/C)C(=O)NC(=CC1=O)C2=O (stereo not drawn)', 'yes (1)');
